study-target: menin-MLL interaction (Homo sapiens, UniProt O00255)
Sequence (O00255 whole entry): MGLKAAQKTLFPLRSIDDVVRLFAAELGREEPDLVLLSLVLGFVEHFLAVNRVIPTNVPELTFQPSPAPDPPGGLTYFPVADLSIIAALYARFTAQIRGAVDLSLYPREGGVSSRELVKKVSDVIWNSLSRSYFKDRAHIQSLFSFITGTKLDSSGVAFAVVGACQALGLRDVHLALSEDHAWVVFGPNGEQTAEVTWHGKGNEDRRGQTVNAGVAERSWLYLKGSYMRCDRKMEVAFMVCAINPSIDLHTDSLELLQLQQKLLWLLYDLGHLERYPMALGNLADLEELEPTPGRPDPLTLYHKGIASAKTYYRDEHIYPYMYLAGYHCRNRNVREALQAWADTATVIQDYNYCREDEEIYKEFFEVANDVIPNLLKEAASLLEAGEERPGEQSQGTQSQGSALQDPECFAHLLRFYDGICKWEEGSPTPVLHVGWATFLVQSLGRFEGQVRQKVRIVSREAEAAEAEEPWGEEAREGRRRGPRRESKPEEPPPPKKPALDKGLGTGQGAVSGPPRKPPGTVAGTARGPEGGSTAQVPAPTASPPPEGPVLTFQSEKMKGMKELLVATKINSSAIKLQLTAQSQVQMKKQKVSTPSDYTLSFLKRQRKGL
procedure-details: biochemical
Can you tell me IC50 for the items I'm about to list?

Recorded result, CNCCS(=O)(=O)Nc1ccc(CC(=O)N2CCN(c3ncnc4sc(CC(F)(F)F)cc34)CC2)cc1 , IC50: < 100 nM

Recorded result, N#Cc1[nH]c2ccc(CN3CCC(Nc4ncnc5sc(CC(F)(F)F)cc45)CC3)cc2c1N , IC50: 100 to 500 nM

Recorded result, CS(=O)(=O)N(CC#N)c1ccc(CC(=O)N2CCN(c3ncnc4sc(CC(F)(F)F)cc34)CC2)cc1 , IC50: < 100 nM

Recorded result, CCCc1cc2c(N(C)C3CCN(Cc4ccccc4)CC3)ncnc2s1 , IC50: 500 to 2000 nM
